- Tested on: NCI-H226 lung
- experiment description: NCI-60 one-dose screen, 48 h (100 = growth as untreated, 0 = no growth, -100 = all killed)
- stated conditions: 10 µM unless noted
Compounds without any hit were thinned out: in the full panel of roughly 83,000, 20% have a hit.
Examples of compounds with documented growth follow.
Write the answer as a number in %, unit excluded.

Sample answers from the record:
O=C(NCCN1CCOCC1)Nc1ccc(-c2cc3c(Nc4ccc(Oc5cccc(C(F)(F)F)c5)c(Cl)c4)ncnc3s2)cc1 :: 26.3
COC(=O)c1ccc(NC(=O)c2ccc(-c3cccc([N+](=O)[O-])c3)o2)cc1 :: 73.9
CCOc1ccc(-n2nc(C(=O)Nc3ccccc3)nc2-c2cc(OC)c(OC)c(OC)c2)cc1 :: 80
CCOC(=O)c1csc(NC(=O)COc2cccc(/C=C3\CSc4ccccc4C3=O)c2)n1 :: 98.1

So, CCn1c(Cc2ccccc2Nc2c(Cl)cccc2Cl)nnc1SCC(=O)NN1C(=O)/C(=C/c2cc(OC)c(O)c(OC)c2)SC1=S ? Its growth was 40.7

* * *

Examples of molecules with documented growth follow.
- Test system: CAKI-1 renal
- experiment description: NCI-60 one-dose screen, 48 h (100 = growth as untreated, 0 = no growth, -100 = all killed)
- stated conditions: 10 µM unless noted
Compounds without any hit were thinned out: in the full panel of roughly 83,000, 20% have a hit.
Write the answer as a number in %, unit excluded.

Sample answers from the record:
Cc1ccc(/C=C2\SC(=S)N(CC(=O)NCCCN3CCOCC3)C2=O)cc1 :: 89.4
O=C1NC(=O)C(c2ccc(Cl)cc2Cl)N1 (centres undefined) :: 100
Cc1ccccc1COc1ccc(-c2ccnn2-c2ccc(Cl)cc2)cc1 :: 59.7

Okay, next one:
So, CN1CCN(c2ccc3nc(-c4ccc(OCCCCN5CCN(CCCCN6C(=O)c7cccc8cccc(c78)C6=O)CC5)cc4)[nH]c3c2)CC1 ? Its growth was 33.1

* * *

- System: HOP-92 NSCLC
- experiment description: NCI-60 one-dose screen, 48 h (100 = growth as untreated, 0 = no growth, -100 = all killed)
- stated conditions: 10 µM unless noted
About 83,000 compounds went through this panel and 20% of them were active in at least one assay; those are over-represented in the sample as a whole. Active and inactive are the calls of the source. The calls were made as follows: active = growth percent below 10; inactive = the rest.
Examples of molecules with documented growth follow.

NC(=O)c1cc(I)ccc1NC(=O)/C=C/c1ccccc1Cl :: 48.3% (inactive)
Cc1ccc(-c2onc3c(=O)[nH]nc(-c4ccccc4)c23)cc1 :: 31.8% (inactive)
O=C1Nc2c(ccc(Cl)c2Cl)/C1=C\c1ccc(C(F)(F)F)cc1 :: 57.8% (inactive)

So, COC[C@H](C)n1c(C2CCOCC2)nc2cnc3cc(-c4c(C)noc4C)c(OC)cc3c21 ? Its growth was 37.1% (inactive)

So, O=C(N/N=C/c1c[nH]c2ccccc12)c1cc(-c2ccccc2)on1 ? Its growth was 92.1% (inactive)

So, Cc1cc(N2CCOCC2)nc(N[C@@H]2CCC[C@H](Nc3ccnc4cc(Cl)ccc34)C2)n1 ? Its growth was -21.7% (active)

So, Cc1ccc(O)c(N2C(=NCc3ccco3)NS(=O)(=O)c3cnccc32)c1 ? Its growth was 27.7% (inactive)

So, CCc1nc(N)nc(N)c1C#CC(C)c1cc(-c2ccnc(C)c2)c2oc(C)nc2c1 (centres undefined) ? Its growth was -0.67% (active)

So, CCCCCCCCCCCCC[N+](C)(C)Cc1ccccc1 ? Its growth was -64.3% (active)

* * *

Examples of molecules with documented growth follow.
- System: MDA-MB-435 melanoma
- experiment description: NCI-60 one-dose screen, 48 h (100 = growth as untreated, 0 = no growth, -100 = all killed)
- stated conditions: 10 µM unless noted
The panel holds about 83,000 compounds, 20% with a hit somewhere; the sample as a whole holds those more often. The source made the active and inactive calls. The calls were made as follows: active = growth percent below 10; inactive = the rest.

O=c1cc(/C(=C2/C=CC=N2)c2ccc[nH]2)c2cc(Cl)ccc2o1 :: 9.82% (active)
COc1cc(/C=C/c2cc(/C=C/c3ccc(O)c(OC)c3)n(-c3c(C)cccc3C)c(=O)n2)ccc1O :: 2.28% (active)
O=C(CN1C(=O)/C(=C/c2ccc(Cl)cc2)SC1=S)NCCCN1CCOCC1 :: 102% (inactive)
CCCSc1ccc2nc(NC(=O)OC)[nH]c2c1 :: -51% (active)
CON1C(=O)CC[C@]2(C)[C@H]3CC[C@@H]4C([C@@]5(C)CCC(=O)O5)CC[C@@]4(C)[C@]3(C)CC[C@H]2C1(C)C (stereo partly drawn) :: 101% (inactive)

Lab entry: MDA-MB-435 melanoma assay, molecule CC(C)c1c(C(=O)c2ccccc2)c(-c2ccccc2)c(-c2ccc(F)cc2)n1CC[C@@H](O)C[C@@H](O)CC(=O)O , growth = 68.9% (inactive)

Lab entry: MDA-MB-435 melanoma assay, molecule CCOc1ccc(-n2nc(C(=O)Nc3ccccc3)nc2-c2cc(OC)c(OC)c(OC)c2)cc1 , growth = 0.193% (active)

Lab entry: MDA-MB-435 melanoma assay, molecule COc1ccc(N=Nc2nccs2)c(O)c1 , growth = 58.7% (inactive)

Lab entry: MDA-MB-435 melanoma assay, molecule OC(c1cc2cc(Cl)c(Cl)cc2c2cc(C(F)(F)F)ccc12)C1CCCCN1 (stereo not drawn) , growth = -73.9% (active)

Lab entry: MDA-MB-435 melanoma assay, molecule CC(C)n1c(/C=C/[C@@H](O)C[C@@H](O)CC(=O)O)c(-c2ccc(F)cc2)c2ccccc21 , growth = 55.8% (inactive)

Lab entry: MDA-MB-435 melanoma assay, molecule O=c1cc(CSc2nnc(-c3ccc(F)cc3)o2)c2ccc3ccccc3c2o1 , growth = 106% (inactive)

Lab entry: MDA-MB-435 melanoma assay, molecule C=CCSSC1N=CNc2nc[nH]c21 (stereo not drawn) , growth = 25.5% (inactive)

Lab entry: MDA-MB-435 melanoma assay, molecule O=C1OCC2=C1C(c1ccncc1)c1cc3c(cc1N2CCO)OCO3 (stereo not drawn) , growth = 96.7% (inactive)

* * *

- Tested on: SNB-19 CNS
- experiment description: NCI-60 one-dose screen, 48 h (100 = growth as untreated, 0 = no growth, -100 = all killed)
- stated conditions: 10 µM unless noted
The panel holds about 83,000 compounds, 20% with a hit somewhere; the sample as a whole holds those more often. Calls of active or inactive are those of the source. Rule for the calls: active = growth percent below 10; inactive = the rest.
Examples of compounds with documented growth follow.

Cn1ncc2c(=O)nc3c(-c4ccccc4)n[nH]n3c21 :: 99.1% (inactive)
Cc1nn(-c2ccc(F)cc2)c2ncnc(Oc3ccc(NC(=O)Nc4ccc(Cl)c(C(F)(F)F)c4)cc3)c12 :: 98.9% (inactive)
COc1cccc(-c2nc3sccn3c2-c2ccnc(NCCNS(=O)(=O)c3ccc(F)cc3)c2)c1 :: 50.5% (inactive)
CCCc1cc(=O)n2c(C(=O)Nc3ccc(F)cc3)c(C(=O)Nc3ccc(F)cc3)sc2n1 :: 48.4% [30 µM] (inactive)
COc1ccc(C2C(C#N)=C(N)Oc3n[nH]c(-c4cccs4)c32)cc1I (stereo not drawn) :: 87.1% (inactive)
N#C/C(=C\c1ccc(-c2ccc(Cl)c(Cl)c2)o1)c1nc(-c2ccco2)cs1 :: 100% (inactive)
CCN1CCN(c2nc(NCCCNc3ccnc4cc(Cl)ccc34)c3ccccc3n2)CC1 :: 16.5% (inactive)
CC(C)(C)N1CCC1CN (stereo not drawn) :: 101% (inactive)

So, C=C(C)[C@@H]1CC[C@]2(C(=O)OC)CC[C@]3(C)[C@H](CC[C@@H]4[C@@]5(C)C/C(=C/c6ccc(OC)cc6)C(=O)C(C)(C)[C@@H]5CC[C@]43C)[C@@H]12 ? Its growth was 108% (inactive)

So, CC/C=C\C/C=C\C[C@H]1C/C=C2/C(=O)C=C[C@@H]2C/C=C\CCC(=O)O1 ? Its growth was 28% (inactive)

So, O=c1oc2c(C(F)(F)F)cccc2cc1-c1csc(Nc2ccc(OCCF)cc2)n1 ? Its growth was 27.7% (inactive)

So, CN(C)CCN1C(=O)c2cccc3c(N)ccc(c23)C1=O ? Its growth was 27.3% (inactive)

So, COc1ccc(S(=O)(=O)N2CCN(C)CC2)cc1NC(=O)c1[nH]c(C)c2c1CCCCC2=O ? Its growth was 66.5% (inactive)

* * *

- System: M14 melanoma
- experiment description: NCI-60 one-dose screen, 48 h
- stated conditions: 10 µM unless noted
- Method: Growth inhibition of the M14 human tumor cell line is measured as a screen for anti-cancer activity. Cells are grown in 96 well plates and exposed to the test compound for 48 hours. Compounds are tested at a single concentration, which is 10^-5 M for most compounds. The reported endpoint is percent growth (GI% or GIPRCNT), where numbers from 0 - 100% represent growth inhibition, and numbers from -100% - 0 represent cell death. For example, a value of 40 represents 60% growth inhibition. […]
About 83,000 compounds went through this panel and 20% of them were active in at least one assay; those are over-represented in the sample as a whole. Activity calls are given as the source filed them. How the source made its calls: active means growth percent below 10; inactive means the rest.
Parameter call: string, one of True = active, False = inactive

Example cases with answers are listed next.
O=S(=O)(Nc1ccc(I)cc1F)c1ccc(-c2cnc(C3CC3)o2)cc1 :: False
CCOC(=O)C(C)(C#N)C1C=CCCC1 (configuration not stated) :: False

*Q* Entry Oc1cccc(-c2nc(N3CCOCC3)c3c4c(sc3n2)CCCC4)c1 : call = ?
*A* False

Reference source: PubChem BioAssay (NCI)
